The values you see were collected from paper PMC8556680.

Molecular target: T1, GST-ZNF410 ZF1-ZF5 (Homo sapiens, UniProt Q86VK4 217-366)
T1 sequence: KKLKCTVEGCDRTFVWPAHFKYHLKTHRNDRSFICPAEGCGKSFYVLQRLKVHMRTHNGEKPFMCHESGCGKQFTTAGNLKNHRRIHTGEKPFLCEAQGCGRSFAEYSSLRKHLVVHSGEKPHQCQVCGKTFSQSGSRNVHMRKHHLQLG
Assay: fluorescence polarization
measured-attribute: pKd
Lab note: report pKd as minus log10 of the concentration in molar units, number only.

The value of pKd measured for the binder 17-bp consensus oligo (FAM) (dsDNA) DNA 1: CACATCCCATAATAATG DNA 2: CATTATTATGGGATGTG turned out to be 7.66
